Ref: patent US11433099B2

- assayed.target: HLA-B*08:01 (Homo sapiens)
- assay.summary: MHC binding assay (UV-ligand exchange, beta2m ELISA)
- test.parameters: MHC class I binding score; binding to HLA-B*08:01 ranged by peptide exchange yield (UV-ligand exchange, β2m ELISA)
metric.name: Peptide exchange

> print(dat)
                                   substance       metric.name          reading
 1  158 (DVIIKGNGL; listed as Homo sapiens) [compound 158]  Peptide exchange    ++ (20% = ++)
 2  162 (LFKQTKINL; listed as Homo sapiens) [compound 162]  Peptide exchange    ++ (20% = ++)
 3  76 (HPRLKVNLL; listed as Homo sapiens) [compound 76]  Peptide exchange  +++ (50% = +++)
 4  52 (ELILKHSL; listed as Homo sapiens) [compound 52]  Peptide exchange  +++ (50% = +++)
 5  58 (LPKKMKLL; listed as Homo sapiens) [compound 58]  Peptide exchange    ++ (20% = ++)
 6  209 (SRFGKFVQL; listed as Homo sapiens) [compound 209]  Peptide exchange    ++ (20% = ++)
 7  132 (IPIQAHQI; listed as Homo sapiens) [compound 132]  Peptide exchange  +++ (50% = +++)
 8  62 (FMLAKEASL; listed as Homo sapiens) [compound 62]  Peptide exchange    ++ (20% = ++)
 9  18 (LSLVRKAL; listed as Homo sapiens) [compound 18]  Peptide exchange  +++ (50% = +++)
10  39 (DAKSKIEQI; listed as Homo sapiens) [compound 39]  Peptide exchange    ++ (20% = ++)

====

- assayed.target: HLA-B*08:01 (Homo sapiens, UniProt P01889)
- assay.summary: MHC binding assay (UV-ligand exchange, beta2m ELISA)
- test.parameters: MHC class I binding score; binding to HLA-B*08:01 ranged by peptide exchange yield (UV-ligand exchange, β2m ELISA)
metric.name: Peptide exchange

> print(dat)
                                  substance       metric.name          reading
1  11 (MAPLKMLAL; listed as Homo sapiens) [compound 11]  Peptide exchange  +++ (50% = +++)
2  243 (EGVPPGTVL; listed as Homo sapiens) [compound 243]  Peptide exchange  +++ (50% = +++)
3  213 (FPSLFINQF; listed as Homo sapiens) [compound 213]  Peptide exchange    ++ (20% = ++)
4  134 (DQRSRATL; listed as Homo sapiens) [compound 134]  Peptide exchange    ++ (20% = ++)

====

- assayed.target: HLA-B*08:01 (Homo sapiens, UniProt P01889)
- assay.summary: MHC binding assay (UV-ligand exchange, beta2m ELISA)
- test.parameters: MHC class I binding score; binding to HLA-B*08:01 ranged by peptide exchange yield (UV-ligand exchange, β2m ELISA)
metric.name: Peptide exchange

> print(dat)
                                   substance                            assayed.target          reading
 1  201 (TASAMQHVL; listed as Homo sapiens) [compound 201]  HLA-B*08:01 (Homo sapiens, UniProt P01889)  +++ (50% = +++)
 2  103 (IANLRVKNI; listed as Homo sapiens) [compound 103]  HLA-B*08:01 (Homo sapiens, UniProt P01889)  +++ (50% = +++)
 3  71 (HIRIKHTF; listed as Homo sapiens) [compound 71]  HLA-B*08:01 (Homo sapiens, UniProt P01889)  +++ (50% = +++)
 4  30 (DLQKKAQAL; listed as Homo sapiens) [compound 30]  HLA-B*08:01 (Homo sapiens, UniProt P01889)    ++ (20% = ++)
 5  179 (LPLTEHEL; listed as Homo sapiens) [compound 179]  HLA-B*08:01 (Homo sapiens, UniProt P01889)  +++ (50% = +++)
 6  214 (DAPRHRLL; listed as Homo sapiens) [compound 214]  HLA-B*08:01 (Homo sapiens, UniProt P01889)    ++ (20% = ++)
 7  2 (QIMPKAGL; listed as Homo sapiens) [compound 2]  HLA-B*08:01 (Homo sapiens, UniProt P01889)  +++ (50% = +++)
 8  244 (HALPPYITVL; listed as Homo sapiens) [compound 244]  HLA-B*08:01 (Homo sapiens, UniProt P01889)    ++ (20% = ++)
 9  25 (HLHPKGREL; listed as Homo sapiens) [compound 25]  HLA-B*08:01 (Homo sapiens, UniProt P01889)    ++ (20% = ++)
10  186 (DLISPRQPRL; listed as Homo sapiens) [compound 186]  HLA-B*08:01 (Homo sapiens, UniProt P01889)    ++ (20% = ++)
